TESTED_TARGET: ComR from Streptococcus thermophilus LMD-9 (ComR-StreptagII, wild type) (Streptococcus thermophilus LMD-9)
ASSAY_NAME: ITC; peptide 500 μM in the syringe, ComR 50 μM in the cell; 20°C; 20 mM Tris-HCl pH 8.0, 150 mM NaCl, 1 mM EDTA; one-binding-site model; apparent KD (peptide binding and dimerization not told apart)
PARAMETER: stoichiometry N

BINDER: LPYFAGCL [XIP octapeptide (ComS 17-24, LPYFAGCL) from Streptococcus thermophilus LMD-9]
VALUE_REPORTED: 1.1
--
BINDER: LPYFAGCA [XIP L24A variant (ComS 17-24 with L24A)]
VALUE_REPORTED: 1.75
--
BINDER: LPYAAGCL [XIP F20A variant (ComS 17-24 with F20A)]
VALUE_REPORTED: 1.2
--
BINDER: LPAFAGCL [XIP Y19A variant (ComS 17-24 with Y19A)]
VALUE_REPORTED: 1.5
